- Tested on: K-562 leukemia
- Test summary: NCI-60 one-dose screen, 48 h
- Cond: 10 µM unless noted
This is part of a sample that, as a whole, favours compounds with a hit. Of some 83,000 tested, about 20% had one in any assay. Active and inactive are the calls of the source. Rule for the calls: active = growth percent below 10; inactive = the rest.
Outcomes: active, inactive

compound="CCOC(=O)C1=C(C)NC(=O)NC1c1ccc(OCC(=O)N/N=C/c2ccc(Cl)cc2)cc1 (stereo not given)" answer_label=inactive
compound=O=S(=O)(NCCCNc1cc(-c2cn(-c3ccccc3)nc2-c2cccc(O)c2)ccn1)c1cccc2ccccc12 answer_label=active
compound="O=C(CC(O)c1ccncc1)c1ccccc1 (stereo not given)" answer_label=inactive
compound=COc1cc(OC)c(C(=O)/C=C/c2ccc(C(F)(F)F)cc2)c(OC)c1 answer_label=inactive
compound=COc1cc(NS(C)(=O)=O)ccc1Nc1c2ccc([N+](=O)[O-])cc2nc2c(C)cccc12 answer_label=active
compound=COc1cc(NC(=O)CCl)ccc(=O)c1 answer_label=inactive
compound=CC(=O)n1cc([C@H]2CC[C@H](c3cn(C(C)=O)c4ccccc34)c3c2[nH]c2ccccc32)c2ccccc21 answer_label=inactive
compound=CC(C)CCC[C@@H](C)[C@H]1CC[C@H]2[C@@H]3CC[C@H]4C/C(=N/O)CC[C@]4(C)[C@H]3CC[C@]12C answer_label=inactive
compound="O=C1NCC(c2cc3ccccc3[nH]c2=O)Nc2ccccc21 (stereo not given)" answer_label=inactive
compound=CC(C)C[C@H](NC(=O)[C@@H](Cc1ccccc1)n1ccc(Nc2ccccc2)cc1=O)B(O)O answer_label=active
compound="O=C(c1c[nH]c2ccccc12)C(Sc1nc2ccccc2c(=O)[nH]1)c1ccccc1 (stereo not given)" answer_label=inactive
compound="O=C(c1ccccc1)C(Cl)C(Cl)c1ccccc1 (stereo not given)" answer_label=active
compound="CCCC1OC(c2ccc(C(C)C)cc2)OCC1CC (stereo not given)" answer_label=inactive
compound=CC/C=C\C/C=C\C[C@H](O)C/C=C1/C(=O)C=C[C@H]1C/C=C\CCC(=O)OC answer_label=active
compound=O=C(/C=C/c1ccccc1)n1c(-c2ccc(Cl)cc2)nc2ccccc21 answer_label=inactive
compound=NCCSC(c1ccccc1)(c1ccccc1)c1ccccc1 answer_label=active
compound=COc1cccc(NC(=O)c2sc3nc4c(cc3c2N)CCCC4)c1 answer_label=inactive
compound=CC/C=C\C[C@H](O)C/C=C1/C(=O)C(Cl)=C[C@@H]1C/C=C\CCCC(=O)OC answer_label=active
compound="Cc1ccc(C2=NN(c3ccc(S(N)(=O)=O)cc3)C(c3cn(-c4ccccc4)nc3-c3ccccc3)C2)cc1 (stereo not given)" answer_label=inactive
compound=CN1CCN(c2ccc3cc(-c4nc5ccccc5[nH]4)c(=O)oc3c2)CC1 answer_label=inactive

###

- Tested on: TK-10 renal
- Test summary: NCI-60 one-dose screen, 48 h (100 = growth as untreated, 0 = no growth, -100 = all killed)
- Cond: 10 µM unless noted
Compounds without any hit were thinned out: in the full panel of roughly 83,000, 20% have a hit. Activity calls are given as the source filed them. The calls were made as follows: active = growth percent below 10; inactive = the rest.
Outcome measure: growth

compound="CC(CCc1ccccc1)NC(=O)c1n[nH]c(=O)c2ccccc12 (centres undefined)" assay_system="TK-10 renal" outcome_measure=growth result="89.6% (inactive)"
compound=COc1ccc(C(=O)N2CCN(C(=O)c3cc(OC)c(OC)c(OC)c3)CC2)cc1OCCCCOc1cc2c(cc1OC)C(=O)N1CCC[C@H]1C=N2 assay_system="TK-10 renal" outcome_measure=growth result="157% (inactive)"
compound=COc1cc(/C=C/C(=O)c2ccccc2O)ccc1OCCCOc1cc2c(cc1OC)C(=O)N1CCC[C@H]1C=N2 assay_system="TK-10 renal" outcome_measure=growth result="-27.9% (active)"
compound=COc1ccc(/C=C/c2cc(N3CCOCC3)c3cc(F)c(F)cc3n2)cc1OC assay_system="TK-10 renal" outcome_measure=growth result="31.9% (inactive)"
compound=COc1ccc(/C=C/C(=O)c2cccc(B(O)O)c2)cc1O assay_system="TK-10 renal" outcome_measure=growth result="99.3% (inactive)"
compound="CCn1cc(C2NC(=O)c3cc(F)ccc3N2)c2cccc(Cl)c21 (centres undefined)" assay_system="TK-10 renal" outcome_measure=growth result="50.4% (inactive)"
compound=Clc1nc(-c2cccnc2)nc2sc3c(c12)CCCCCC3 assay_system="TK-10 renal" outcome_measure=growth result="103% (inactive)"
compound=COc1cccc(/C=C2\SC(N3CCN(c4ccccn4)CC3)=NC2=O)c1 assay_system="TK-10 renal" outcome_measure=growth result="90.9% (inactive)"
compound=CC[C@]1(O)C[C@@H]2CN(Cc3c([nH]c4ccccc34)[C@@](C(=O)OC)(c3cc4c(cc3OC)N(C)[C@H]3[C@@](O)(C(=O)OC)[C@H](OC(C)=O)[C@]5(CC)[C@@H]6C[C@@H]6CN6CC[C@]43[C@@H]65)C2)C1 assay_system="TK-10 renal" outcome_measure=growth result="55.7% (inactive)"
